- assayed_system: 20S Human Erythrocyte Proteasome (HEP) (Homo sapiens, UniProt P20618+P28074)
- Construct: 20S Human Erythrocyte Proteasome (HEP), purchased from Immatics Biotechnologies Inc
- assay_explanation: Chymotrypsin-like activity of 20S Human Erythrocyte Proteasome (HEP), IC50 determination
- stated_conditions: assay of Example C, inhibition of HEP
pIC50: −log10 of the molar value.
Form field: pIC50 (one value per entry).

A selection of reference data follows.
CCCCc1ccc(C(=O)N[C@@H](CNC(=O)c2csc(-c3ccncc3)n2)C(=O)N[C@@H](CC(C)C)B(O)O)cc1	> 8.00
CCCCc1ccc(C(=O)N[C@H](C(=O)N[C@@H](CC(C)C)B(O)O)[C@@H](C)O)nc1	> 7.00

Then there is this compound:
// CCCCCCCCS(=O)(=O)N[C@@H](CCCNC(=N)N[N+](=O)[O-])C(=O)N[C@@H](CC(C)C)B1O[C@@H]2C[C@@H]3C[C@@H](C3(C)C)[C@]2(C)O1 : pIC50 value = > 8.00

----------
- assayed_system: proteasome in Molt-4 cells (human leukemia) (Homo sapiens, UniProt P20618+P28074)
- Sequence (P28074 60-263): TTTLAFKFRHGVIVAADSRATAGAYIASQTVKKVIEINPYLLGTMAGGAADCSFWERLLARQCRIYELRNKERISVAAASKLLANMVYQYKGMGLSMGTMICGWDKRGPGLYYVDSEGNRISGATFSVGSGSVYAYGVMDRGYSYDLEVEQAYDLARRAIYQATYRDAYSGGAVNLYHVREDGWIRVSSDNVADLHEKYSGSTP
- Sequence (P20618 29-241): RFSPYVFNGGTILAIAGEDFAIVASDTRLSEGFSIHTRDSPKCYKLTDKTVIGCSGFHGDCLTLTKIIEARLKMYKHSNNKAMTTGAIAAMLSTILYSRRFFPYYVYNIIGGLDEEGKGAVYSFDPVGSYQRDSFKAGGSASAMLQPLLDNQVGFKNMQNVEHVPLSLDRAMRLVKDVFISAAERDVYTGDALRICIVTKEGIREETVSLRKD
- Format: cell-based
- stated_conditions: assay of Example E, inhibition of MOLT4; read-out: MOLT4 (EC50)
outcome_measure: EC50

Record CC(C)C[C@H](NC(=O)[C@H](CCCNC(=N)N[N+](=O)[O-])NC(=O)CCCCCCCc1ccccc1)B1O[C@@H]2C[C@@H]3C[C@@H](C3(C)C)[C@]2(C)O1 , field EC50: < 200 nM

EC50 in this record for COc1ccc2cc([C@H](C)C(=O)N[C@@H](CCCNC(=N)N[N+](=O)[O-])C(=O)N[C@@H](CC(C)C)B3O[C@@H]4C[C@@H]5C[C@@H](C5(C)C)[C@]4(C)O3)ccc2c1 : < 200 nM

----------
- assayed_system: 20S Human Erythrocyte Proteasome (HEP) (Homo sapiens, UniProt P20618+P28074)
- Construct: 20S Human Erythrocyte Proteasome (HEP), purchased from Immatics Biotechnologies Inc
- assay_explanation: Chymotrypsin-like activity of 20S Human Erythrocyte Proteasome (HEP), IC50 determination
- stated_conditions: assay of Example C, inhibition of HEP
pIC50: −log10 of the molar value.
outcome_measure: pIC50

Worked set:
CCCCc1ccc(C(=O)N[C@@H](CNC(=O)c2ccc(-c3nn[nH]n3)cc2)C(=O)N[C@@H](CC(C)C)B(O)O)cc1	> 8.00
CCCCCC/C=C/C(=O)N[C@@H](CCCNC(=N)N[N+](=O)[O-])C(=O)N[C@@H](CC(C)C)B1O[C@@H]2C[C@@H]3C[C@@H](C3(C)C)[C@]2(C)O1	> 8.00

Lab note: CCCCc1ccc(C(=O)N[C@@H](CCCNC(=N)N[N+](=O)[O-])C(=O)N[C@@H](CC(C)C)B(O)O)cc1 gave pIC50 of > 8.00

Form: compound = CC(C)C[C@H](NC(=O)[C@H](CCCNC(=N)N[N+](=O)[O-])NC(=O)CCc1ccc(C(C)C)cc1)B1O[C@@H]2C[C@@H]3C[C@@H](C3(C)C)[C@]2(C)O1 ; pIC50 = > 8.00

The recorded pIC50 for CCCCCCCc1ccc(C(=O)N[C@@H](CCCNC(=N)N[N+](=O)[O-])C(=O)N[C@@H](CC(C)C)B2O[C@@H]3C[C@@H]4C[C@@H](C4(C)C)[C@]3(C)O2)cc1 is > 8.00
